Item-by-item account of Endocytosis efficiency (%)
MEASURED_TARGET: T1, human Nectin-4 (human, UniProt Q96NY8 32-510)
T1 sequence (looked up): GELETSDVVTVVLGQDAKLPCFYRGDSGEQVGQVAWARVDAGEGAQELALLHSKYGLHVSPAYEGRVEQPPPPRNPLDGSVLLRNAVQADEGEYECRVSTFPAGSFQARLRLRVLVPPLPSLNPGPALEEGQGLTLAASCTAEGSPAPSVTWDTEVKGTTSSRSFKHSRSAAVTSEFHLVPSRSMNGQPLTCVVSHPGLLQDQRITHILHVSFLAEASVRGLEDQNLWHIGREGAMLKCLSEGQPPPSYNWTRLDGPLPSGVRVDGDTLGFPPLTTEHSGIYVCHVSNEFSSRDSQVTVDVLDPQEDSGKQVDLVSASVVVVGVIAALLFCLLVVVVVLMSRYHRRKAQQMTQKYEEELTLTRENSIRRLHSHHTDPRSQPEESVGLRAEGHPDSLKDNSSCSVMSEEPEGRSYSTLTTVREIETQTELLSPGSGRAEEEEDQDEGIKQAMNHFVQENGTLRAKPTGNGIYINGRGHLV
ASSAY_NOTES: cell-based or functional assay
Lab book: enter the figure in %, no units written.

Some solved cases for reference:
5M21 hz00 (antibody, human IgG1, kappa, V domains shown, Humanized) VH: QVQLVQSGAEVKKPGASVKVSCKASGYTFTTYYIHWVRQAPGQRLEWMGWIYPGNVNTKYNEKFKGRVTITRDTSASTAYMELSSLRSEDTAVYYCARGLYYFDYWGQGTLVTVSS VL: DIQMTQSPSSLSASVGDRVTITCKASQSVSNDVAWYQQKPGKVPKLLIYYASNRYTGVPSRFSGSGSGTDFTLTISSLQPEDVATYYCQQDYSSPYTFGGGTKVEIKR : 54.8
5M21 hz10 (antibody, human IgG1, kappa, V domains shown, Humanized) VH: QVQLVQSGAEVKKPGASVKVSCKASGYTFTTYYIHWVRQAPGQRLEWMGWIYPGNVNTKYNEKFKGRVTITADKSASTAYMELSSLRSEDTAVYYCARGLYYFDYWGQGTLVTVSS VL: DIQMTQSPSSLSASVGDRVTITCKASQSVSNDVAWYQQKPGKVPKLLIYYASNRYTGVPSRFSGSGSGTDFTLTISSLQPEDVATYYCQQDYSSPYTFGGGTKVEIKR : 64.8

# input for lookup
Exercise: Item under review: 5M21 hz01 (antibody, human IgG1, kappa, V domains shown, Humanized) VH: QVQLVQSGAEVKKPGASVKVSCKASGYTFTTYYIHWVRQAPGQRLEWMGWIYPGNVNTKYNEKFKGRVTITRDTSASTAYMELSSLRSEDTAVYYCARGLYYFDYWGQGTLVTVSS VL: DIQMTQSPSSLSASVGDRVTITCKASQSVSNDVAWYQQKPGKVPKLLIYYASNRYTGVPSRFSGSGSGTDFTLTISSLQPEDLATYFCQQDYSSPYTFGGGTKVEIKR . Reported Endocytosis efficiency (%)?
Solution: 62.2
